Data provenance: PubChem BioAssay (NCI)

# Test system: SK-MEL-28 melanoma
# protocol_notes: NCI tumour cell line growth inhibition, 48 h
// TGI lookup, one value per entry

1. CS(=O)(=O)Nc1ccc2ccccc2c1 : > 100 µM
2. O=C1NC2C(O)CCCCC2C12CCCCC2 (centres undefined) : > 100 µM
3. O=C(c1ccco1)N(C(=O)N1CCC(c2ccccc2)CC1)c1ccccc1 : > 100 µM

# input for lookup
Query: So what does the record say about TGI for N#C/C(C(=O)NCc1ccccc1)=C(/N)N1CCCC1 ?
Response: > 100 µM

====

Reported values of TGI for individual entries
# System: OVCAR-4 ovarian
# protocol_notes: NCI tumour cell line growth inhibition, 48 h

Query: Sample COc1ccc2[nH]c(C(=O)OCc3ccc4c(Cl)cc(Cl)c(O)c4n3)cc2c1 — what was its TGI?
Response: 2.92 µM

Query: How about CCc1nc2c(c(N(C)C)c1C(=O)OC)CCc1ccccc1-2 ?
Response: > 100 µM

Query: Field entry: O/N=C/c1ccc(O)c(O)c1
Response: > 100 µM
